- System: SN12C
- procedure.summary: NCI tumour cell line growth inhibition, 48 h
Calls of active or inactive are those of the source. No stated cut-off is given here; in the data, active = GI50 up to about 1.1 µM and inactive = higher.
Log the outcome using a class from active, inactive

[
  {
    "compound": "O=C1N/C(=C\\[N+](=O)[O-])c2ccccc21",
    "category": "inactive"
  },
  {
    "compound": "CNC(=O)C(NC(=O)[C@H](CC(C)C)NC(=O)[C@@H](S)CCN1C(=O)N(C)C(C)(C)C1=O)C(C)(C)C (stereo partly drawn)",
    "category": "inactive"
  },
  {
    "compound": "Cc1sc2nc(-c3ccc(Cl)c([N+](=O)[O-])c3)c(/C=N/NC(=N)N)n2c1C",
    "category": "inactive"
  },
  {
    "compound": "C1CCN(CCC2CCCCN2)CC1 (stereo not drawn)",
    "category": "inactive"
  },
  {
    "compound": "N#CC1C[C@@H]2CC3(CCC2CN1C(=O)c1ccccc1)OCCO3 (stereo partly drawn)",
    "category": "inactive"
  },
  {
    "compound": "Cc1ccc2[nH]c(=O)c(-c3cnc(O)nn3)c(O)c2c1",
    "category": "inactive"
  },
  {
    "compound": "CCCN(CCCCC(NC(C)=O)C(=O)NCc1ccccc1)C(=O)NCCCl (stereo not drawn)",
    "category": "inactive"
  },
  {
    "compound": "CC(=O)O[C@H]1CCC2[C@@H]3CCC4Nc5c(cnn5-c5ccccc5)C[C@]4(C)C3CC[C@@]21C (stereo partly drawn)",
    "category": "inactive"
  }
]

query: What did this assay record as the result for `CCOC(=O)[C@H]1CSC[C@@H](C(=O)OC)N1` ?
result: inactive

query: What did this assay record as the result for `O=C1CCCc2c(O)ccc(O)c21` ?
result: inactive

query: What did this assay record as the result for `O=C(CCc1ccc(O)cc1)NCCc1cccc(O)c1` ?
result: inactive

query: What did this assay record as the result for `CC(C)=CCNc1nc(Cl)nc2[nH]cnc12` ?
result: inactive

query: What did this assay record as the result for `Clc1ccccc1CN1COc2c(cc(Cl)c3cccnc23)C1` ?
result: active

query: What did this assay record as the result for Clc1ccc(C2=NOC(C3CCCCC3)C2)cc1 (stereo not drawn) ?
result: inactive

query: What did this assay record as the result for `CCc1ccc2nc(-c3ccc(O)cc3)sc2c1` ?
result: inactive

The values you see were collected from ChEMBL document CHEMBL1201862.
